System: KG-1
measurement-description: cell viability (% survival relative to DMSO control, bortezomib = 0%); higher = less cytotoxic
measurement-parameters: 100 nM; 72 h
Structures can show the parent of a compound that is named as a salt.
measured-quantity: cell viability (%)
Please give a number only; it is taken to be in %.

Worked cases, answers included:
* CCCCCCCCCCCC(=O)c1c(O)c(C(=O)CCCCCCCCCCC)c(O)c(C2CC(c3ccc(O)cc3)Oc3cc(O)ccc32)c1O (stereo not given) | 128
* Cc1cc(CS(=O)(=O)c2ccccc2)cc(OCc2ccc(CN3CCC[C@@H]3CO)cc2)c1 [PF-543 hydrochloride] | 114
* CCCCC/C=C\C/C=C\C/C=C\C/C=C\CCCCN1C(=O)C=CC1=O [N-Arachidonylmaleimide] | 101
* O=C(O)c1cc(N=Nc2ccc(S(=O)(=O)Nc3ccccn3)cc2)ccc1O [Sulfasalazine] | 112
* O=C(O)C(=O)CBr [3-bromopyruvic acid] | 111
* CCOP(=O)(OCC)C(=Cc1cc(C(C)(C)C)c(O)c(C(C)(C)C)c1)P(=O)(OCC)OCC | 121
* O=C(O)Cn1nnc(-c2cc(N3CCC(Oc4cc(F)ccc4Br)CC3)no2)n1 [MK-8245] | 108
* CC(C)c1cc2c(c(O)c1O)[C@@]1(C(=O)O)CCCC(C)(C)[C@@H]1CC2 [Carnosic acid] | 96
* O=C1c2cc([N+](=O)[O-])ccc2-n2c1nc1ccccc1c2=O [GNF-Pf-3777] | 110
* O=C(O)c1cc(Cl)cc(Cl)c1O [3,5-Dichlorosalicylic Acid] | 85.6

Next compound, cell viability to be filled in.
Task item: So what's the measured cell viability for this one? O=C1O/C(=C/Br)CCC1c1cccc2ccccc12 (stereo not given) [Bromoenol Lactone]
Reply: 101
